details: in ethanol, 307.15 K
readout.label: solubility (mole fraction)

>>> readout_value("CC(C)=CCC[C@@H](C)[C@H]1CC[C@@]2(C)C3=C(CC[C@]12C)[C@@]1(C)CC[C@H](O)C(C)(C)[C@@H]1CC3")
0.00135

----------
settings: in methanol, 288.15 K
readout.label: solubility (mole fraction)

>>> readout_value("CC(C)=CCC[C@@H](C)[C@H]1CC[C@@]2(C)C3=C(CC[C@]12C)[C@@]1(C)CC[C@H](O)C(C)(C)[C@@H]1CC3")
"5e-05"

----------
settings: in DMF, 300.15 K
readout.label: solubility (mole fraction)

>>> readout_value("CC(C)=CCC[C@@H](C)[C@H]1CC[C@@]2(C)C3=C(CC[C@]12C)[C@@]1(C)CC[C@H](O)C(C)(C)[C@@H]1CC3")
0.00103

----------
conditions: in ethyl acetate, 302.85 K
readout.label: solubility (mole fraction)

>>> readout_value("CC(C)=CCC[C@@H](C)[C@H]1CC[C@@]2(C)C3=C(CC[C@]12C)[C@@]1(C)CC[C@H](O)C(C)(C)[C@@H]1CC3")
0.00235

----------
settings: in acetone, 318.36 K
readout.label: solubility (mole fraction)

>>> readout_value("CC(C)=CCC[C@@H](C)[C@H]1CC[C@@]2(C)C3=C(CC[C@]12C)[C@@]1(C)CC[C@H](O)C(C)(C)[C@@H]1CC3")
0.0036

----------
details: in DMSO, 312.95 K
readout.label: solubility (mole fraction)

>>> readout_value("CC(C)=CCC[C@@H](C)[C@H]1CC[C@@]2(C)C3=C(CC[C@]12C)[C@@]1(C)CC[C@H](O)C(C)(C)[C@@H]1CC3")
0.00042

----------
conditions: in ethyl acetate, 293.25 K
readout.label: solubility (mole fraction)

>>> readout_value("CC(C)=CCC[C@@H](C)[C@H]1CC[C@@]2(C)C3=C(CC[C@]12C)[C@@]1(C)CC[C@H](O)C(C)(C)[C@@H]1CC3")
0.00165

----------
conditions: in n-propanol, 318.93 K
readout.label: solubility (mole fraction)

>>> readout_value("CC(C)=CCC[C@@H](C)[C@H]1CC[C@@]2(C)C3=C(CC[C@]12C)[C@@]1(C)CC[C@H](O)C(C)(C)[C@@H]1CC3")
0.00478

----------
conditions: in DMF, 297.35 K
readout.label: solubility (mole fraction)

>>> readout_value("CC(C)=CCC[C@@H](C)[C@H]1CC[C@@]2(C)C3=C(CC[C@]12C)[C@@]1(C)CC[C@H](O)C(C)(C)[C@@H]1CC3")
0.00089

----------
settings: in ethyl acetate, 307.45 K
readout.label: solubility (mole fraction)

>>> readout_value("CC(C)=CCC[C@@H](C)[C@H]1CC[C@@]2(C)C3=C(CC[C@]12C)[C@@]1(C)CC[C@H](O)C(C)(C)[C@@H]1CC3")
0.00284

----------
details: in methanol, 298.15 K
readout.label: solubility (mole fraction)

>>> readout_value("CC(C)=CCC[C@@H](C)[C@H]1CC[C@@]2(C)C3=C(CC[C@]12C)[C@@]1(C)CC[C@H](O)C(C)(C)[C@@H]1CC3")
"9e-05"

----------
settings: in acetonitrile, 298.15 K
readout.label: solubility (mole fraction)

>>> readout_value("CC(C)=CCC[C@@H](C)[C@H]1CC[C@@]2(C)C3=C(CC[C@]12C)[C@@]1(C)CC[C@H](O)C(C)(C)[C@@H]1CC3")
0.00013

----------
conditions: in ethanol, 312.35 K
readout.label: solubility (mole fraction)

>>> readout_value("CC(C)=CCC[C@@H](C)[C@H]1CC[C@@]2(C)C3=C(CC[C@]12C)[C@@]1(C)CC[C@H](O)C(C)(C)[C@@H]1CC3")
0.00168

----------
settings: in acetone, 288.45 K
readout.label: solubility (mole fraction)

>>> readout_value("CC(C)=CCC[C@@H](C)[C@H]1CC[C@@]2(C)C3=C(CC[C@]12C)[C@@]1(C)CC[C@H](O)C(C)(C)[C@@H]1CC3")
0.00105

----------
conditions: in ethanol, 293.45 K
readout.label: solubility (mole fraction)

>>> readout_value("CC(C)=CCC[C@@H](C)[C@H]1CC[C@@]2(C)C3=C(CC[C@]12C)[C@@]1(C)CC[C@H](O)C(C)(C)[C@@H]1CC3")
0.00075

----------
conditions: in isopropanol, 278.07 K
readout.label: solubility (mole fraction)

>>> readout_value("CC(C)=CCC[C@@H](C)[C@H]1CC[C@@]2(C)C3=C(CC[C@]12C)[C@@]1(C)CC[C@H](O)C(C)(C)[C@@H]1CC3")
0.00047

----------
details: in DMF, 277.15 K
readout.label: solubility (mole fraction)

>>> readout_value("CC(C)=CCC[C@@H](C)[C@H]1CC[C@@]2(C)C3=C(CC[C@]12C)[C@@]1(C)CC[C@H](O)C(C)(C)[C@@H]1CC3")
0.00035

----------
conditions: in n-propanol, 278.07 K
readout.label: solubility (mole fraction)

>>> readout_value("CC(C)=CCC[C@@H](C)[C@H]1CC[C@@]2(C)C3=C(CC[C@]12C)[C@@]1(C)CC[C@H](O)C(C)(C)[C@@H]1CC3")
0.0009

----------
settings: in acetonitrile, 277.09 K
readout.label: solubility (mole fraction)

>>> readout_value("CC(C)=CCC[C@@H](C)[C@H]1CC[C@@]2(C)C3=C(CC[C@]12C)[C@@]1(C)CC[C@H](O)C(C)(C)[C@@H]1CC3")
"3e-05"

----------
conditions: in acetonitrile, 312.25 K
readout.label: solubility (mole fraction)

>>> readout_value("CC(C)=CCC[C@@H](C)[C@H]1CC[C@@]2(C)C3=C(CC[C@]12C)[C@@]1(C)CC[C@H](O)C(C)(C)[C@@H]1CC3")
0.00026

----------
details: in acetone, 283.75 K
readout.label: solubility (mole fraction)

>>> readout_value("CC(C)=CCC[C@@H](C)[C@H]1CC[C@@]2(C)C3=C(CC[C@]12C)[C@@]1(C)CC[C@H](O)C(C)(C)[C@@H]1CC3")
0.00087

----------
settings: in DMSO, 307.15 K
readout.label: solubility (mole fraction)

>>> readout_value("CC(C)=CCC[C@@H](C)[C@H]1CC[C@@]2(C)C3=C(CC[C@]12C)[C@@]1(C)CC[C@H](O)C(C)(C)[C@@H]1CC3")
0.00031

----------
conditions: in acetonitrile, 317.05 K
readout.label: solubility (mole fraction)

>>> readout_value("CC(C)=CCC[C@@H](C)[C@H]1CC[C@@]2(C)C3=C(CC[C@]12C)[C@@]1(C)CC[C@H](O)C(C)(C)[C@@H]1CC3")
0.00038

----------
conditions: in acetonitrile, 307.55 K
readout.label: solubility (mole fraction)

>>> readout_value("CC(C)=CCC[C@@H](C)[C@H]1CC[C@@]2(C)C3=C(CC[C@]12C)[C@@]1(C)CC[C@H](O)C(C)(C)[C@@H]1CC3")
0.00019

----------
conditions: in DMSO, 302.35 K
readout.label: solubility (mole fraction)

>>> readout_value("CC(C)=CCC[C@@H](C)[C@H]1CC[C@@]2(C)C3=C(CC[C@]12C)[C@@]1(C)CC[C@H](O)C(C)(C)[C@@H]1CC3")
0.00024

----------
settings: in ethyl acetate, 277.67 K
readout.label: solubility (mole fraction)

>>> readout_value("CC(C)=CCC[C@@H](C)[C@H]1CC[C@@]2(C)C3=C(CC[C@]12C)[C@@]1(C)CC[C@H](O)C(C)(C)[C@@H]1CC3")
0.00076

----------
conditions: in ethanol, 298.25 K
readout.label: solubility (mole fraction)

>>> readout_value("CC(C)=CCC[C@@H](C)[C@H]1CC[C@@]2(C)C3=C(CC[C@]12C)[C@@]1(C)CC[C@H](O)C(C)(C)[C@@H]1CC3")
0.00092

----------
conditions: in ethanol, 277.95 K
readout.label: solubility (mole fraction)

>>> readout_value("CC(C)=CCC[C@@H](C)[C@H]1CC[C@@]2(C)C3=C(CC[C@]12C)[C@@]1(C)CC[C@H](O)C(C)(C)[C@@H]1CC3")
0.00036

----------
conditions: in methanol, 312.15 K
readout.label: solubility (mole fraction)

>>> readout_value("CC(C)=CCC[C@@H](C)[C@H]1CC[C@@]2(C)C3=C(CC[C@]12C)[C@@]1(C)CC[C@H](O)C(C)(C)[C@@H]1CC3")
0.00016

----------
conditions: in ethanol, 318.05 K
readout.label: solubility (mole fraction)

>>> readout_value("CC(C)=CCC[C@@H](C)[C@H]1CC[C@@]2(C)C3=C(CC[C@]12C)[C@@]1(C)CC[C@H](O)C(C)(C)[C@@H]1CC3")
0.00214

----------
settings: in acetonitrile, 303.05 K
readout.label: solubility (mole fraction)

>>> readout_value("CC(C)=CCC[C@@H](C)[C@H]1CC[C@@]2(C)C3=C(CC[C@]12C)[C@@]1(C)CC[C@H](O)C(C)(C)[C@@H]1CC3")
0.00015
